Taken from patent EP4806899A1.

# ASSAYED TARGET: human CYP11B2 enzyme (Homo sapiens, UniProt P19099)
# Construct: the ORF of human CYP11B1 or CYP11B2 were transfected into G402 cells
# Sequence (P19099 25-503): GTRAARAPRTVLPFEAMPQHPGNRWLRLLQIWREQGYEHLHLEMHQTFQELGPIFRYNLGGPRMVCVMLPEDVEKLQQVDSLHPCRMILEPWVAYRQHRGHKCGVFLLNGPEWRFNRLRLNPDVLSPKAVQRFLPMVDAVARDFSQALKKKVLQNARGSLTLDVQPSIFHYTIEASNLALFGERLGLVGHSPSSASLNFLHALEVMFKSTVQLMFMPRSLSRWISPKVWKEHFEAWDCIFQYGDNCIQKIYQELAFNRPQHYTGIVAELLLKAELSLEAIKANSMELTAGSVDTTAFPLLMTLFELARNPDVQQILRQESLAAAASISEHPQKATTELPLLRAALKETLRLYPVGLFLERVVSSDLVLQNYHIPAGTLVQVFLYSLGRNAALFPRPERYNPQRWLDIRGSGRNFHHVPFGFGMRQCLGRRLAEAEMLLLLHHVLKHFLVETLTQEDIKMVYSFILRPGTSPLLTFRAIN
# ASSAY COMMENT: Enzyme inhibition activity assay in G402 cells stably expressing human CYP11B2 (aldosterone production from 11-DOC, LC/MS)
# CONDITION: 1 µM 11-DOC, 16 hours, aldosterone detected
# note: exactly 8 nM is not below, so it is condition not met; use condition met for IC50 strictly under it

Task item: Please let me know if "CNC(=O)N[C@@H]1CCCc2c(-c3ccc4c(ccc(=O)n4C)c3)cncc21" shows IC50 below 8 nM.
Reply: condition not met

Task item: Please let me know if "CCC(=O)N[C@@H]1CCCc2c(-c3ccc4c(c3)COC(=O)N4C)cncc21" shows IC50 below 8 nM.
Reply: condition not met

Task item: Please let me know if "[2H]C([2H])([2H])N(C(=O)N[C@@H]1CCCc2c(-c3ccc4c(c3)CCC(=O)N4C)cncc21)C([2H])([2H])[2H]" shows IC50 below 8 nM.
Reply: condition not met

Task item: Please let me know if "CCC(=O)N[C@@H]1CCCc2c(-c3ccc4c(c3)cc(C#N)n4C)cncc21" shows IC50 below 8 nM.
Reply: condition met

Task item: Please let me know if "CN(C)C(=O)N[C@@H]1CCCc2c(-c3ccc4c(ccc(=O)n4C)c3)cncc21" shows IC50 below 8 nM.
Reply: condition not met

Task item: Please let me know if "COC(=O)N[C@@H]1CCOc2c(-c3ccc4c(ccc(=O)n4C)c3)cncc21" shows IC50 below 8 nM.
Reply: condition not met

Task item: Please let me know if "[2H]C([2H])([2H])OC(=O)N[C@@H]1CCCc2c(-c3ccc4c(ccc(=O)n4C)c3)cncc21" shows IC50 below 8 nM.
Reply: condition met
